Biological target: human TLR8 (Homo sapiens)
Construct: host or cells: HEK-Blue cells
Sequence (Q9NR97 27-1041): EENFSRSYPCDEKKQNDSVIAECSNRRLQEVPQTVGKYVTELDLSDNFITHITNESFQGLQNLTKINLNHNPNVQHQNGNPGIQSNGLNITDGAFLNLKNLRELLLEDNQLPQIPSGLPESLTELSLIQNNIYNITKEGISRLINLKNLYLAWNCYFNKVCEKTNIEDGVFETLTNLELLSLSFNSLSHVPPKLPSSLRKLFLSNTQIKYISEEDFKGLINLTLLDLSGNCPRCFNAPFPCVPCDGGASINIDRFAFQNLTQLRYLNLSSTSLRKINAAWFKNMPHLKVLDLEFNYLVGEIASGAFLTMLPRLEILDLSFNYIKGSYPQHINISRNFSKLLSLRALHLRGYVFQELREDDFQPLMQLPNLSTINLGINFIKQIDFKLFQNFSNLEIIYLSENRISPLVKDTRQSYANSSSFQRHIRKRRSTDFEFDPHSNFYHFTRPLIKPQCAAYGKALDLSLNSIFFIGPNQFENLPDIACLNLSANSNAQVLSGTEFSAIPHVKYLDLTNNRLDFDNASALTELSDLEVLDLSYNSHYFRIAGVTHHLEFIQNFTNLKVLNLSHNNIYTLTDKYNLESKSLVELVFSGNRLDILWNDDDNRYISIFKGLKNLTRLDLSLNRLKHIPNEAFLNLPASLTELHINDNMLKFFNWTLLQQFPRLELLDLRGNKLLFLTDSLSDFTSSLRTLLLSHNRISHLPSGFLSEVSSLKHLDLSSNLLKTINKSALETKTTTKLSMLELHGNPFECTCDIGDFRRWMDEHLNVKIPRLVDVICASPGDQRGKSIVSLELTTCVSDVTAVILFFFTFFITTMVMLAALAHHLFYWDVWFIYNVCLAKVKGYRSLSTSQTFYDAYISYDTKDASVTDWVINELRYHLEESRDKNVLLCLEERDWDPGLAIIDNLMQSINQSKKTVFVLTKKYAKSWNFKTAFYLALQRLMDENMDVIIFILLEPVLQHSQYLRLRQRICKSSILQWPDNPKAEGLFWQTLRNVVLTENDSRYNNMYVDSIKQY
Assay: TLR8 inhibition reporter assay (HEK-Blue cells, SEAP reporter, R848 stimulation)
Type: cell-based
Settings: HEK-Blue cells overexpressing human TLR8, SEAP reporter, R848 15.9 μM; read-out: TLR8 IC50
Text: TLR7/8/9 Inhibition Reporter Assays HEK-Blue™-cells (Invivogen) overexpressing human TLR7, TLR8 or TLR9 receptors were used for screening inhibitors of these receptors using an inducible SEAP (secreted embryonic alkaline phosphatase) reporter gene under the control of the IFN-β minimal promoter fused to five NF-κB and AP-1-binding sites. […]
Below, each entry is listed with its recorded log10 of IC50.
// units: nM (pre-log); metric: IC50; scale: log10

Reference set (8 entries):
Molecule: COC(C)(C)CNC1CCN(c2nc3c(C(C)C)c(-c4cn5ncnc5c(C)c4C)[nH]c3s2)CC1
Val: -0.38
//
Molecule: COc1cc(-c2[nH]c3sc(C4CCC(N5CCCC5)CC4)nc3c2C(C)C)cn2ncnc12 (single isomer, unassigned) [Example 98]
Val: 0.14
//
Molecule: COc1cc(-c2[nH]c3sc(C4CCC(N(C)CC(=O)N(C)C)CC4)nc3c2C(C)C)cn2ncnc12 (single isomer, unassigned) [Example 163]
Val: 1.31
//
Molecule: Cc1c(-c2[nH]c3sc(N4CCNCC4)nc3c2C(C)C)cn(C)c(=O)c1C
Val: 0.03
//
Molecule: Cc1cc(-c2[nH]c3sc(C4CCN(C(C)C)CC4)nc3c2C(C)C)cc(C)n1
Val: 1.01
//
Molecule: Cc1c(-c2[nH]c3sc(C(=O)N4CCC(N(C)C)CC4)nc3c2C(C)C)cn2ncnc2c1C
Val: 0.45
//
Molecule: COc1cc(-c2[nH]c3sc(C4CCC(NC[C@@H](F)C(C)(C)O)CC4)nc3c2C(C)C)cn2ncnc12 (single isomer, unassigned) [Example 91]
Val: 0.91
//
Molecule: Cc1c(-c2[nH]c3sc(C(=O)N4CCNC(=O)C4)nc3c2C(C)C)cn2ncnc2c1C
Val: 1.09

log10 of IC50 in this record for CCC1(NC2CCC(c3nc4c(C(C)C)c(-c5cc(OC)c6ncnn6c5)[nH]c4s3)CC2)COC1 (single isomer, unassigned) [Example 95] : 1.38

GET /value?item= Cc1cc(-c2[nH]c3sc(N4CCN(C(=O)CN(C)C)C[C@H]4C)nc3c2C(C)C)cn2ncnc12 &field=log10 of IC50 returns 3.12

The molecule listed as CCN1CCC(c2nc3c(C(C)C)c(-c4cn5ncnc5c(C)c4C)[nH]c3s2)CC1 shows log10 of IC50 equal to 0.44

log10 of IC50 in this record for Cc1c(-c2[nH]c3sc(N4CCC(NCC5(C)COC5)CC4)nc3c2C(C)C)cn2ncnc2c1C : -0.55

GET /value?item= Cc1c(-c2[nH]c3sc(C4CCN(CC5CC5)CC4)nc3c2C(C)C)cn2ncnc2c1C &field=log10 of IC50 returns -0.10

response.value for Cc1c(-c2[nH]c3sc(C4CCC(NC5COC5)CC4)nc3c2C(C)C)cn2ncnc2c1C (single isomer, unassigned) [Example 184] (field: log10 of IC50) = -0.08
